# Experiment: qHTS assay to identify small molecule agonists of the AP-1 signaling pathway (AID 1159526)
# Conditions: ME-180 (cervical carcinoma) AP-1-bla reporter, beta-lactamase FRET ratio, 5 h; series mostly up to 76.8 µM
Inconclusive results are not listed. Active and inactive are the calls of the source. Calls come from the whole dose curve.
Outcome (select one): active, inactive

Example entries begin here.
## Task # fetch the recorded call for Cn1c(=O)c2c(ncn2CC(O)CO)n(C)c1=O (stereo not drawn) here
## Result inactive

## Task # fetch the recorded call for CCCCOC(=O)/C=C\C(=O)OCCCC here
## Result inactive

## Task # fetch the recorded call for CC(=O)OCCc1ccccc1 here
## Result inactive

## Task # fetch the recorded call for NC1CCN(c2nc3c(cc2F)c(=O)c(C(=O)O)cn3-c2ccc(F)cc2F)C1 (stereo not drawn) here
## Result inactive

## Task # fetch the recorded call for Oc1ccc(Sc2ccc(O)cc2)cc1 here
## Result inactive

***
## Task # fetch the recorded call for CCN(CC)CCc1nc(-c2ccccc2)no1 here
## Result inactive

## Task # fetch the recorded call for COc1ccc(OC)c(OC)c1 here
## Result inactive

## Task # fetch the recorded call for COc1ccc2[nH]c(S(=O)Cc3ncc(C)c(OC)c3C)nc2n1 (stereo not drawn) here
## Result inactive

* * *

# Experimental system: Thyrotropin receptor (Homo sapiens)
# Experiment: qHTS assay to identify small molecule agonists of the thyroid stimulating hormone receptor (TSHR) signaling pathway (AID 1224843); note: nearly all actives have a fitted effect of over 45% in size
# Conditions: TSHR-HEK293 cells, cAMP HTRF, agonist mode, 30 min; series mostly up to 92.4 µM
Results filed as inconclusive are left out. Calls of active or inactive are those of the source. Calls follow the shape of the full dose curve.
Assay readout: outcome

## Task Under Thyrotropin receptor (Homo sapiens): outcome value of CCOC(=O)C1=NN(c2ccccc2)C(=O)C1 ?
## Result inactive

## Task Under Thyrotropin receptor (Homo sapiens): outcome value of CCCCc1cc2ccccc2c(OCCN(C)C)n1 ?
## Result inactive

## Task Under Thyrotropin receptor (Homo sapiens): outcome value of O=C(O)/C=C/c1cnc[nH]1 ?
## Result inactive

* * *

# Experimental system: Cytochrome P450 2C9 (Homo sapiens)
# Experiment: Cytochrome P450 Family 2 Subfamily C Member 9 (CYP2C9) small molecule antagonists: luciferase reporter qHTS assay (AID 1671198); note: nearly all actives have a fitted effect of over 50% in size
# Conditions: P450-Glo CYP2C9 enzyme assay, luciferin luminescence; series mostly up to 115 µM
Results filed as inconclusive are left out. Activity calls are given as the source filed them. Calls follow the shape of the dose curve; as a rule, active = well fitted inhibition curve with a large enough effect in the repeat runs; inconclusive = weak or mixed curves; inactive = no such curve, though single readings can be large or run the other way.
Outcome (select one): true (1) = active, false (0) = inactive

Example entries begin here.
## Task # fetch the recorded call for CC(C)(C)C1CCCCC1O (stereo not given) here
## Result false (0)

## Task # fetch the recorded call for O=C(O)C(c1ccc(Cl)cc1)c1ccc(Cl)cc1 here
## Result true (1)

## Task # fetch the recorded call for CC(=O)O[C@H]1C[C@@H]2CC[C@@H]3[C@H](CC[C@@]4(C)[C@H]3C[C@H]([N+]3(C)CCCCC3)[C@@H]4OC(C)=O)[C@@]2(C)C[C@@H]1N1CCCCC1 here
## Result false (0)

## Task # fetch the recorded call for Oc1ccc2c(c1)OCO2 here
## Result true (1)

## Task # fetch the recorded call for CCCCCCCCCCCCCCCBr here
## Result false (0)

## Task # fetch the recorded call for ClC(Cl)(Cl)c1ccc(C(Cl)(Cl)Cl)cc1 here
## Result true (1)

## Task # fetch the recorded call for O=C(Cl)c1ccc([N+](=O)[O-])cc1 here
## Result false (0)

## Task # fetch the recorded call for C=C(C)C(=O)OCCOc1ccccc1 here
## Result true (1)

***
## Task # fetch the recorded call for CC(=O)/C=C/C1C(C)=CCCC1(C)C (stereo not given) here
## Result false (0)

## Task # fetch the recorded call for COc1ccc(OC)c(OC)c1 here
## Result true (1)

* * *

# Experimental system: Cytochrome P450 2D6 (Homo sapiens)
# Experiment: Cytochrome P450 Family 2 Subfamily D Member 6 (CYP2D6) small molecule antagonists: luciferase reporter qHTS assay (AID 1671196); note: nearly all actives have a fitted effect of over 50% in size
# Conditions: P450-Glo CYP2D6 enzyme assay, luciferin luminescence, 1 h; series mostly up to 115 µM
Results filed as inconclusive are left out. Activity calls are given as the source filed them. Calls come from the whole dose curve; as a rule, active = well fitted inhibition curve with a large enough effect in the repeat runs; inconclusive = weak or mixed curves; inactive = no such curve, though single readings can be large or run the other way.
Outcome (select one): 1 for active, 0 for inactive

## Task # fetch the recorded call for CCCC(C)C here
## Result 0

## Task # fetch the recorded call for O=C(O)C(c1ccc(Cl)cc1)c1ccc(Cl)cc1 here
## Result 0

## Task # fetch the recorded call for O=CNc1ccccc1 here
## Result 0

## Task # fetch the recorded call for C=CC(=O)OCC(C)OCC(C)OCC(C)OC(=O)C=C (stereo not given) here
## Result 0

## Task # fetch the recorded call for Cc1cccc(Oc2ccccc2)c1 here
## Result 1

## Task # fetch the recorded call for NCCCOCCOCCOCCCN here
## Result 1

## Task # fetch the recorded call for CN(C)CCCNCCCN here
## Result 1

## Task # fetch the recorded call for c1ccc(CNCc2ccccc2)cc1 here
## Result 1

## Task # fetch the recorded call for C[Si](C)O[Si](C)(C)O[Si](C)(C)O[Si](C)C here
## Result 0

Read the next record carefully.
## Task # fetch the recorded call for CCCCc1cc2ccccc2c(OCCN(C)C)n1 here
## Result 1

* * *

# Experiment: qHTS assay to identify small molecule agonists of the sonic hedgehog signaling (Shh) pathway - cell viability counter screen (AID 1259366); note: nearly all actives have a fitted effect of over 50% in size
# Conditions: NIH/3T3 Gli1-Luc viability, CellTiter-Fluor, 24 h; series mostly up to 92.4 µM
Results filed as inconclusive are left out. Active and inactive are the calls of the source. The call rests on the fitted dose curve; in most records, active means well fitted cell-killing curve with a large enough effect in the repeat runs; inconclusive means weak or mixed curves, or effect the other way; inactive means flat fitted curve, though single readings scatter.
Outcome (select one): 1 (active), -1 (inactive)

## Task # fetch the recorded call for Oc1ccc(Sc2ccc(O)cc2)cc1 here
## Result -1

## Task # fetch the recorded call for CCOC(=O)C1=NN(c2ccccc2)C(=O)C1 here
## Result -1

## Task # fetch the recorded call for COC(=O)C(C)=O here
## Result -1

## Task # fetch the recorded call for C=CC(C)(CCC=C(C)C)OC(=O)c1ccccc1 (stereo unspecified) here
## Result -1

## Task # fetch the recorded call for Oc1ccc(O)c2c(O)cccc12 here
## Result -1

## Task # fetch the recorded call for CCN1CCC[C@H]1CNC(=O)c1c(OC)ccc(Br)c1OC here
## Result -1

## Task # fetch the recorded call for Cc1cccc(Oc2ccccc2)c1 here
## Result -1

## Task # fetch the recorded call for CC(=O)NCCCS(=O)(=O)O here
## Result -1

## Task # fetch the recorded call for O=C(O)c1cn(C2CC2)c2cc(Cl)c(F)cc2c1=O here
## Result -1

## Task # fetch the recorded call for CCCC(C)C here
## Result -1

## Task # fetch the recorded call for Cc1cccc(C(C)(C)C)c1O here
## Result -1

## Task # fetch the recorded call for CC(C)(C)c1ccc(OCC2CO2)cc1 (stereo unspecified) here
## Result -1

## Task # fetch the recorded call for O=C(O)C(c1ccc(Cl)cc1)c1ccc(Cl)cc1 here
## Result -1

## Task # fetch the recorded call for CC(=O)OCCc1ccccc1 here
## Result -1

## Task # fetch the recorded call for CCc1nn(C2CCCCC2)c2cc(C3(C#N)CCC(C(=O)O)CC3)ccc12 (stereo unspecified) here
## Result 1

## Task # fetch the recorded call for Oc1ccc2c(c1)OCO2 here
## Result -1

## Task # fetch the recorded call for O=C(O)/C=C/c1cnc[nH]1 here
## Result -1

## Task # fetch the recorded call for CCCCOCCOCCOCCOCCO here
## Result -1

* * *

# Experiment: qHTS RealTime-Glo MT Cell Viability Assay in HEK293 cells - 8 hour (AID 1224887); note: top concentration of the series differs between compounds; nearly all actives have a fitted effect of over 50% in size
# Conditions: RealTime-Glo luminescence; series mostly up to 76.8 µM
Inconclusive results are not listed. The source made the active and inactive calls. The call rests on the fitted dose curve; in most records, active means well fitted cell-killing curve with a large enough effect in the repeat runs; inconclusive means weak or mixed curves, or effect the other way; inactive means flat fitted curve, though single readings scatter.
Outcome (select one): class 1 (active), class 0 (inactive)

Example entries begin here.
## Task # fetch the recorded call for O=[N+]([O-])c1cc[n+]([O-])cc1 here
## Result class 0

## Task # fetch the recorded call for O=C(c1ccccc1)c1ccc2n1CCC2C(=O)O (stereo not drawn) here
## Result class 0

## Task # fetch the recorded call for O=C(O)/C=C/c1cnc[nH]1 here
## Result class 0

## Task # fetch the recorded call for CCCC[C@H]1CN(CC2CCOCC2)C(=O)OC12CCN(C1(C)CCN(C(=O)c3c(C)ncnc3C)CC1)CC2 here
## Result class 0

***
## Task # fetch the recorded call for C=CC(=O)OCC(C)OCC(C)OCC(C)OC(=O)C=C (stereo not drawn) here
## Result class 0

## Task # fetch the recorded call for N#CCc1cccc(C(F)(F)F)c1 here
## Result class 0

## Task # fetch the recorded call for CCC(C)N(C)C(=O)c1cc2ccccc2c(-c2ccccc2Cl)n1 (stereo not drawn) here
## Result class 0

## Task # fetch the recorded call for O=C(Cl)c1c(Cl)cccc1Cl here
## Result class 0

* * *

# Experiment: qHTS assay to identify small molecule antagonists of the glucocorticoid receptor (GR) signaling pathway - cell viability counter screen (AID 720693); note: nearly all actives have a fitted effect of over 55% in size
# Conditions: GR-bla HeLa viability, CellTiter-Glo luminescence, 18 h, with 5 nM dexamethasone present; series mostly up to 58.5 µM
# Description: National Center for Advancing Translational Sciences [NCATS] NIH Chemical Genomics Center [NCGC] U.S. Environmental Protection Agency [EPA] National Institutes of Environmental Health Sciences [NIEHS] National Toxicology Program [NTP] U.S. Food and Drug Administration [FDA] The Glucocorticoid receptor (GR) is one of the members of the nuclear receptor family of ligand-dependent transcription factors. […] The activation of the reporter gene under culture conditions can be detected by fluorescence intensity. […]
Results filed as inconclusive are left out. Calls of active or inactive are those of the source. Calls come from the whole dose curve; as a rule, active = well fitted cell-killing curve with a large enough effect in the repeat runs; inconclusive = weak or mixed curves, or effect the other way; inactive = no such curve, though single readings can be large or run the other way.
Outcome (select one): T = active, F = inactive

Example entries begin here.
## Task # fetch the recorded call for CC[C@@H]1C[C@H](N(Cc2cc(C(F)(F)F)cc(C(F)(F)F)c2)C(C)=O)c2cc(C(F)(F)F)ccc2N1C(=O)OC(C)C here
## Result F

## Task # fetch the recorded call for CCOC(=O)[C@H](CCc1ccccc1)N[C@H]1CCc2ccccc2N(CC(=O)O)C1=O here
## Result F

## Task # fetch the recorded call for CN(C)CCCNCCCN here
## Result F

## Task # fetch the recorded call for Cc1ccc(C)o1 here
## Result F

## Task # fetch the recorded call for NCc1ccccc1 here
## Result F

## Task # fetch the recorded call for Cc1ccc(O)c([C@H](CCN(C(C)C)C(C)C)c2ccccc2)c1 here
## Result F

***
## Task # fetch the recorded call for Nc1nc(N)c2nc(CNc3ccc(C(=O)N[C@@H](CCC(=O)O)C(=O)O)cc3)cnc2n1 here
## Result F

## Task # fetch the recorded call for O=C(O)Cn1c(C(=O)Nc2nc(-c3ccccc3Cl)cs2)cc2ccccc21 here
## Result F

## Task # fetch the recorded call for CCOC(=O)CC(=O)c1cc(F)c(Cl)nc1Cl here
## Result F

## Task # fetch the recorded call for CCCCCCCCCCCCCCC1CO1 (stereo unspecified) here
## Result F

## Task # fetch the recorded call for NCCCN(CCO)CCO here
## Result F

## Task # fetch the recorded call for CC(C)CCCCCCOC(=O)c1ccc(C(=O)OCCCCCCC(C)C)c(C(=O)OCCCCCCC(C)C)c1 here
## Result F

## Task # fetch the recorded call for CCCCCCCCC(CO)CCCCCC (stereo unspecified) here
## Result F

## Task # fetch the recorded call for NC(N)=NN=C(/C=C/c1ccc([N+](=O)[O-])o1)/C=C/c1ccc([N+](=O)[O-])o1 here
## Result T

## Task # fetch the recorded call for CN1CCC(=C2c3ccccc3CCc3sccc32)CC1 here
## Result F

## Task # fetch the recorded call for C1CCC2OC2C1 (stereo unspecified) here
## Result F

## Task # fetch the recorded call for CCCC[C@H]1CN(CC2CCOCC2)C(=O)OC12CCN(C1(C)CCN(C(=O)c3c(C)ncnc3C)CC1)CC2 here
## Result F

## Task # fetch the recorded call for CCCCCOC(=O)COc1cc(N2C(=O)C3=C(CCCC3)C2=O)c(F)cc1Cl here
## Result F

## Task # fetch the recorded call for CC1CCc2cc(F)cc3c(=O)c(C(=O)O)cn1c23 (stereo unspecified) here
## Result F

## Task # fetch the recorded call for OCC1CC2CC1C1CCC(CO)C21 (stereo unspecified) here
## Result F

Every entry's value here was drawn from PubChem BioAssay (Tox21).
